Test: HUVEC growth inhibition – cell-based, human, primary screen (AID 575)
Conditions: HUVEC proliferation, CellTiter-Glo luminescence, 72 h; at 10 µM; stronger effect = lower value
viability strictly less than 80% = Criterion met. Otherwise Criterion not met.

                                   compound     classification
0  CCCC(=O)N=C1SC2CS(=O)(=O)CC2N1c1ccc(CC)cc1 (stereo unspecified)  Criterion not met
1  Cc1cc(C)cc(NC(=O)C2CCCN(c3nccc(C)n3)C2)c1 (stereo unspecified)  Criterion not met
2  CC1(C(=O)CSc2nc3ccccc3s2)CCC(=O)O1 (stereo unspecified)      Criterion met
3            Cn1c(-c2ccccc2)c(CCO)c2ccccc21  Criterion not met
4        O=C(Nc1ccc(Br)cc1F)c1sccc1-n1cccc1  Criterion not met
5              O=C(Nc1cccc2ccccc12)N1CCOCC1  Criterion not met
